Could you please report measured pKd for the items listed next?
# system name: T1, human IL-11 (AAH12506.1, Pro22-Leu199) (human, UniProt P20809 22-199)
# T1 construct: The range Pro22-Leu199 counts on AAH12506.1; The Octet runs say only 'human IL-11'; also called hIL-11
# T1 chain: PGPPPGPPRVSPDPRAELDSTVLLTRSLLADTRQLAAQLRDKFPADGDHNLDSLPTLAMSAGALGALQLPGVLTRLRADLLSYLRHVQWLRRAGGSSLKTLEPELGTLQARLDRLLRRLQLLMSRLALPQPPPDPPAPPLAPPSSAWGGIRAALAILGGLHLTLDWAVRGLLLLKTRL
# test summary: BLI (Octet), antibody captured, human IL-11 in solution
pKd (log units): -log10 of the concentration in mol/L.

Just so you know, measured pKd for hz8C8-VHm1-m6 + hz8C8-VLm7-m2 (antibody, human IgG1, kappa, V domains shown, human IgG1 constant regions) VH: EVQLVESGGGLVQPGGSLRLSCAASGFTFSSFGMHWVRQAPGKGLEWVAVITPGSNTIYYADTVKGRFTISRDNAKNSLYLQMNSLRAEDTAVYYCAREYYSYDEGFAYWGQGTLVTVSS VL: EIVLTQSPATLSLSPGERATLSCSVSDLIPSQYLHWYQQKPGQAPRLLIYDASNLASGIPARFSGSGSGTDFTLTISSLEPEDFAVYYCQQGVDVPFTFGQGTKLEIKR came out at 8.68

Memo: hz8C8-VHm1 + hz8C8-VLm3 (antibody, human IgG1, kappa, V domains shown, human IgG1 constant regions) VH: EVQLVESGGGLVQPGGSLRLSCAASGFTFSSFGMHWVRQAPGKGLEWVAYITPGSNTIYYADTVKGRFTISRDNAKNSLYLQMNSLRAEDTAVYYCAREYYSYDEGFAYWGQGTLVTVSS VL: EIVLTQSPATLSLSPGERATLSCSVSSLISSNYLHWYQQKPGQAPRLLIYRTSNLASGIPARFSGSGSGTDFTLTISSLEPEDFAVYYCQQGVDVPFTFGQGTKLEIKR , reported pKd: 9.20

Reported pKd ( hz8C8-VHm1 + hz8C8-VLm7 (antibody, human IgG1, kappa, V domains shown, human IgG1 constant regions; also called hz8C8m7) VH: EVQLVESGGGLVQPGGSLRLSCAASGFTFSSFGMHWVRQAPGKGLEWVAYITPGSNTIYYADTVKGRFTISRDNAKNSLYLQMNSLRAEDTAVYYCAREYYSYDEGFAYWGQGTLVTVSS VL: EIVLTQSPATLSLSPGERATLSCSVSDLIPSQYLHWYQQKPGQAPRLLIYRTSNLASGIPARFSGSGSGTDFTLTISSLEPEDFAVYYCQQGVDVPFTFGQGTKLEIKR ) = 11.37
